Target: 5-hydroxytryptamine receptor 3A (Homo sapiens)
Sequence (P46098 whole entry): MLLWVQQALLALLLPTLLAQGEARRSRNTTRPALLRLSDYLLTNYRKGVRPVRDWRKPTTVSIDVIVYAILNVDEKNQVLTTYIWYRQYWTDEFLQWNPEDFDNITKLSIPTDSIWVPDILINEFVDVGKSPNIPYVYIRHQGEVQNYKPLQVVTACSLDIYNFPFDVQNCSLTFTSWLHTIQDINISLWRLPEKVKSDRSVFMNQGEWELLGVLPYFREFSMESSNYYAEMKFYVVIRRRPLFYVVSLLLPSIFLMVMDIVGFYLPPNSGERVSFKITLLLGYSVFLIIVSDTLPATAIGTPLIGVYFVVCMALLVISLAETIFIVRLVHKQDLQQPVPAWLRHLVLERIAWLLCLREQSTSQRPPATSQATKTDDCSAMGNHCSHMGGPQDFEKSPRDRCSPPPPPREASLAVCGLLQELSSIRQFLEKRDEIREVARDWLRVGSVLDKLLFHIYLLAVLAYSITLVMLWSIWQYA
Test: Displacement of [3H]GR65630 from recombinant human 5HT3 receptor transiently expressed in HEKT cells measured after 90 mins by microbeta scintillation counting method
RECORDED METRIC: Ki (µM)
Give a bare numeral; the unit µM is implied.

Query: Could you share which Ki value was measured for Cc1cc(Oc2nccc3occc23)ccc1-c1c(C)ncc2nccn12 ?
Result: 7.9

----------
System: D(3) dopamine receptor (Homo sapiens) | Read-out: pKi
Sequence (P35462 whole entry): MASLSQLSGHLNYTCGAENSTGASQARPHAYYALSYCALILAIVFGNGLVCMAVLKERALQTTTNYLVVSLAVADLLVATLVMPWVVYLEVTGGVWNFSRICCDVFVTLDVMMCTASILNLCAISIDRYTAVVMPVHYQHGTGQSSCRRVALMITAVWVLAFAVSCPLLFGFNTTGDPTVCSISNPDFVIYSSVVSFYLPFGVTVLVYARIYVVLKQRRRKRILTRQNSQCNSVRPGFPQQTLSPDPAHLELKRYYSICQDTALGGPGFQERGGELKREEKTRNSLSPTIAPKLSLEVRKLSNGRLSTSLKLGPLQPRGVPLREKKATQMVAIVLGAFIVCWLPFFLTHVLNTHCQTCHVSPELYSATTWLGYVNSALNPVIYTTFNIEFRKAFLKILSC
Reminder that pKi is minus the log10 of a molar concentration.

Below, each entry is followed by its recorded pKi result.
MOLECULE: Cc1cc(Oc2nccc3occc23)ccc1-c1c(C)ncc2nccn12
READOUT NUMBER: 5.10
//
MOLECULE: Cc1ncc2nccn2c1-c1ccc(Oc2nccc3occc23)cc1C(F)(F)F
READOUT NUMBER: 5.09

Note: attention shifts to another entry.
Query: Write down the reported pKi of FC(F)(F)c1cc(Oc2nccc3ccsc23)ccc1-c1cccc2nccn12 , test system: D(3) dopamine receptor (Homo sapiens).
Result: 5.21

----------
target: 5-hydroxytryptamine receptor 7 (Homo sapiens, UniProt P34969); assay: Displacement of [3H]-LSD from recombinant human 5HT7A receptor stably expressed in HEK cells measured after 90 mins by microbeta scintillation counting method
Sequence (P34969 whole entry): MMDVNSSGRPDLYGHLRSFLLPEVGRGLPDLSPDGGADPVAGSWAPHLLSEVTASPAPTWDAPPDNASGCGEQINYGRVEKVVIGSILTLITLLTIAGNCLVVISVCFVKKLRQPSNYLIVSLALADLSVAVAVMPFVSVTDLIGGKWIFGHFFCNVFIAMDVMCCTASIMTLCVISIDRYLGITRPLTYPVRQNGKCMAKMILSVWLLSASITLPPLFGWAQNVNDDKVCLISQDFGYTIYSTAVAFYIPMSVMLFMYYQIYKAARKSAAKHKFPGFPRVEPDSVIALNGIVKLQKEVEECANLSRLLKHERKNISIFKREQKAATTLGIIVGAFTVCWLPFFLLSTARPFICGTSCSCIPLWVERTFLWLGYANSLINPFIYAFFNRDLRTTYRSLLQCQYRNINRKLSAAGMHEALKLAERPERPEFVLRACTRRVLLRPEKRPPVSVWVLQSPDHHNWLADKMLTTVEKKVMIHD
RECORDED METRIC: Ki (µM)
Give a bare numeral; the unit µM is implied.

Below, each entry is followed by its recorded Ki result.
MOLECULE: Cc1ncc2nccn2c1-c1ccc(Oc2nccc3occc23)cc1C(F)(F)F
RECORDED METRIC: Ki
UNIT TEXT: µM
READOUT NUMBER: 8.1
//
MOLECULE: FC(F)(F)c1cc(Oc2nccc3ccsc23)ccc1-c1cccc2nccn12
RECORDED METRIC: Ki
UNIT TEXT: µM
READOUT NUMBER: 3.8
//
MOLECULE: FC(F)(F)c1cc(Oc2nccc3occc23)ccc1-c1cccc2nccn12
RECORDED METRIC: Ki
UNIT TEXT: µM
READOUT NUMBER: 4.1

Note: attention shifts to another entry.
Query: Could you share which Ki value was measured for Cc1cc(Oc2nccc3occc23)ccc1-c1c(C)ncc2nccn12 ?
Result: 7.8

----------
Molecular target: Alpha-1A adrenergic receptor (Homo sapiens, UniProt P35348)
Sequence (P35348 whole entry): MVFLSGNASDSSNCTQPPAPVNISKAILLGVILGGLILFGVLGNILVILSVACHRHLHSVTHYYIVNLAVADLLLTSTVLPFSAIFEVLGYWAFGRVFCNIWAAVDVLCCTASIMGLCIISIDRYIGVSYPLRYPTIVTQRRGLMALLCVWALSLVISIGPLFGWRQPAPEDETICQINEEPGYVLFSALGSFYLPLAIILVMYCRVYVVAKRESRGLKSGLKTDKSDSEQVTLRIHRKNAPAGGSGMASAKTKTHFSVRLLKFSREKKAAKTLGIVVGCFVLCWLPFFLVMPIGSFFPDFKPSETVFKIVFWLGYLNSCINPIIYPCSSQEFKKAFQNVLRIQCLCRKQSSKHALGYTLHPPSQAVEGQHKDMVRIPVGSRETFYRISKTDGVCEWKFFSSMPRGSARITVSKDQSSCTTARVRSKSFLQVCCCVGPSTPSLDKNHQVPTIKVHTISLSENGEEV
Assay: Displacement of [3H]-prazosin from recombinant human alpha1A adrenergic receptor measured after 90 mins by microbeta scintillation counting method
Some molecules, each annotated with its measured pKi.
Reminder that pKi is minus the log10 of a molar concentration.

MOLECULE: Cc1ncc2nccn2c1-c1ccc(Oc2nccc3occc23)cc1C(F)(F)F
SYSTEM UNDER TEST: Alpha-1A adrenergic receptor (Homo sapiens, UniProt P35348)
READOUT NUMBER: 5.06

MOLECULE: Cc1cc(Oc2nccc3occc23)ccc1-c1c(C)ncc2nccn12
SYSTEM UNDER TEST: Alpha-1A adrenergic receptor (Homo sapiens, UniProt P35348)
READOUT NUMBER: 5.47

MOLECULE: FC(F)(F)c1cc(Oc2nccc3ccsc23)ccc1-c1cccc2nccn12
SYSTEM UNDER TEST: Alpha-1A adrenergic receptor (Homo sapiens, UniProt P35348)
READOUT NUMBER: 5.54

Note: attention shifts to another entry.
Query: Could you share which pKi value was measured for FC(F)(F)c1cc(Oc2nccc3occc23)ccc1-c1cccc2nccn12 ?
Result: 5.15

Values compiled from ChEMBL document CHEMBL4390674.
